Header: Ki / Coagulation factor X (Homo sapiens, UniProt P00742) / multiple publications
The reply should be a number in µM, with the unit left off.

Prompt: Recorded Ki for O=C(Nc1cccc(OCc2ccc(F)cc2)c1)C1CCN(Cc2ccncc2)CC1 , please?
Completion: 47.1

Prompt: What do you have for O=C(c1cccc(OCCc2ccc(Cl)cc2Cl)c1)N1CCN(Cc2ccncc2)CC1 ?
Completion: 2.82

Prompt: Here is the next compound: Cc1cccc2c1c(Br)c(C(=O)NCc1cccc(C(=N)N)c1)n2Cc1cccc(C(=N)N)c1
Completion: 0.05

Prompt: Also, Cc1cc(C(=O)Nc2ccc(-c3ccccc3S(C)(=O)=O)cc2F)n(-c2cc3ccccc3cc2S(C)(=O)=O)n1 please.
Completion: 0.0017

Prompt: What would you report for Cc1cc(C(=O)Nc2ncc(-c3ccccc3S(N)(=O)=O)cn2)n(-c2ccc3cc(Cl)ccc3c2)n1 ?
Completion: 0.0025

Prompt: For Cc1ccc(NS(=O)(=O)Cc2ccc(F)cc2)c(=O)n1CC(=O)NCC1CCc2n[nH]cc2C1 (configuration not stated) then?
Completion: 314

Prompt: Query CCOC(=O)CN[C@H](CCc1ccc(O)cc1)C(=O)N1CCC[C@H]1C(=O)NCc1cc(Cl)ccc1CN next
Completion: 0.017

Prompt: Next compound: Nc1noc2ccc(-n3nc(C(F)(F)F)c4ccc(-c5ccc(N6CCCCC6=O)cc5F)c(F)c43)cc12
Completion: 0.0229

Prompt: # iterate: CCOC(=O)C[C@H](NC(=O)c1ccc2c(c1)OC(OCc1ccc(C(=N)N)cc1)C(=O)N2C)c1ccccc1 (some centres not stated)
Completion: 54.6

Prompt: And the next one, CC[C@H](C)[C@H](NS(=O)(=O)Cc1ccc(C(=O)O)cc1)C(=O)N[C@@H](CCC(N)=O)C(=O)NCc1ccc(C(=N)N)cc1 ?
Completion: 2.48

Prompt: What do you have for CCOC(=O)C(=O)N(Cc1ccc(F)c(F)c1)c1ccc2c(c1)N(C)CC(C)(COc1ccc(C(=N)N)cc1)O2 (configuration not stated) ?
Completion: 4.7

Prompt: Same again, this time with N=C(N)c1ccc(CNC(=O)C(Cc2ccc(CN)cc2)NC(=O)[C@@H](CC2CCCCC2)NCC(=O)O)cc1 (mixture of isomers)
Completion: 14

Prompt: Same thing, different compound: N=C(N)c1cccc(C2=NOC(Cn3cnnn3)(C(=O)Nc3ccc(-c4ccccc4S(N)(=O)=O)cc3)C2)c1 (configuration not stated)
Completion: 0.00052

Prompt: Param item: CN1CC(C)(COc2ccc(C(=N)N)cc2)Oc2cc(N(Cc3ccc(F)c(F)c3)C(=O)C(=O)O)ccc21 (configuration not stated)
Completion: 3.6

Prompt: // same read-out, input: COC(=O)CN(c1ccc2nc(C)n(Cc3ccc4ccc(C(=N)N)cc4c3)c2c1)C1CCN(C(C)=N)CC1
Completion: 0.0003
